# target-desc: AAV8 (adeno-associated virus serotype 8)
# assay-details: SPR, AAV on CM5 chip
Items are presented alongside their recorded Kd.
Field format: number, assumed nM, no unit text.

Example binders with recorded Kd:
IN: Identify measured Kd associated with A4-C5 (bispecific antibody) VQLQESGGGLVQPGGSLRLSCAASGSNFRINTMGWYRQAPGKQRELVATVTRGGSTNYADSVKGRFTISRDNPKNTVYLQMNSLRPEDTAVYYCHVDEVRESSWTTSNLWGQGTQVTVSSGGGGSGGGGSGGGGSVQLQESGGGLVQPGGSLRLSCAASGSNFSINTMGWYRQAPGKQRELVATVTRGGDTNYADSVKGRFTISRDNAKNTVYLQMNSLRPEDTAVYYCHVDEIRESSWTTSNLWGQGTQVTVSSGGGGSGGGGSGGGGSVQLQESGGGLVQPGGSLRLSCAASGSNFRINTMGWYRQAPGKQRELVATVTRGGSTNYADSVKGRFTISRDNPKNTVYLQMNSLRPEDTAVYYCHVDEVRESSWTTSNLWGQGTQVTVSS
OUT: 4.97

IN: Please list Kd recorded for the binder A4-B2 (bispecific antibody) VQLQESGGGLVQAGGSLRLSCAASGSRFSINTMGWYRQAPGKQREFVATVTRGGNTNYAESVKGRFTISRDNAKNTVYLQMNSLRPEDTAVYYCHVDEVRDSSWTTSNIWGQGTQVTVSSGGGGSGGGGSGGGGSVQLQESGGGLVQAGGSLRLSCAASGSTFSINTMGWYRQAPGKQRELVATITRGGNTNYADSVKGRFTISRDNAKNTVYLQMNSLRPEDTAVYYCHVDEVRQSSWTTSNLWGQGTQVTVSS
OUT: 1.02

Shift focus to the following entry.
IN: # return recorded Kd for entry A4-C7 (bispecific antibody) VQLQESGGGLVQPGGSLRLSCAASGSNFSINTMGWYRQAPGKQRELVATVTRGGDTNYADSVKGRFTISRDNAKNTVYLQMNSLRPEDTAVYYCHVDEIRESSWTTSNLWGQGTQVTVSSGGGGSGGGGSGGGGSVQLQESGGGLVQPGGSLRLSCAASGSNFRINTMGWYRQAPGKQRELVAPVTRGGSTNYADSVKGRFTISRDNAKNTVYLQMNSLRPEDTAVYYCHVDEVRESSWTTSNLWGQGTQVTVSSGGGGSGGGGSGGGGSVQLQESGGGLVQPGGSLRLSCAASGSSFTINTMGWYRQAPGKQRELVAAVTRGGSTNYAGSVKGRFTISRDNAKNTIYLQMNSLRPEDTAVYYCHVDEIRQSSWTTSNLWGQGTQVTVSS
OUT: 3.7
